- target-or-test-system: Phosphatidylinositol 4,5-bisphosphate 3-kinase catalytic subunit delta isoform (Homo sapiens)
- Sequence (O00329 whole entry): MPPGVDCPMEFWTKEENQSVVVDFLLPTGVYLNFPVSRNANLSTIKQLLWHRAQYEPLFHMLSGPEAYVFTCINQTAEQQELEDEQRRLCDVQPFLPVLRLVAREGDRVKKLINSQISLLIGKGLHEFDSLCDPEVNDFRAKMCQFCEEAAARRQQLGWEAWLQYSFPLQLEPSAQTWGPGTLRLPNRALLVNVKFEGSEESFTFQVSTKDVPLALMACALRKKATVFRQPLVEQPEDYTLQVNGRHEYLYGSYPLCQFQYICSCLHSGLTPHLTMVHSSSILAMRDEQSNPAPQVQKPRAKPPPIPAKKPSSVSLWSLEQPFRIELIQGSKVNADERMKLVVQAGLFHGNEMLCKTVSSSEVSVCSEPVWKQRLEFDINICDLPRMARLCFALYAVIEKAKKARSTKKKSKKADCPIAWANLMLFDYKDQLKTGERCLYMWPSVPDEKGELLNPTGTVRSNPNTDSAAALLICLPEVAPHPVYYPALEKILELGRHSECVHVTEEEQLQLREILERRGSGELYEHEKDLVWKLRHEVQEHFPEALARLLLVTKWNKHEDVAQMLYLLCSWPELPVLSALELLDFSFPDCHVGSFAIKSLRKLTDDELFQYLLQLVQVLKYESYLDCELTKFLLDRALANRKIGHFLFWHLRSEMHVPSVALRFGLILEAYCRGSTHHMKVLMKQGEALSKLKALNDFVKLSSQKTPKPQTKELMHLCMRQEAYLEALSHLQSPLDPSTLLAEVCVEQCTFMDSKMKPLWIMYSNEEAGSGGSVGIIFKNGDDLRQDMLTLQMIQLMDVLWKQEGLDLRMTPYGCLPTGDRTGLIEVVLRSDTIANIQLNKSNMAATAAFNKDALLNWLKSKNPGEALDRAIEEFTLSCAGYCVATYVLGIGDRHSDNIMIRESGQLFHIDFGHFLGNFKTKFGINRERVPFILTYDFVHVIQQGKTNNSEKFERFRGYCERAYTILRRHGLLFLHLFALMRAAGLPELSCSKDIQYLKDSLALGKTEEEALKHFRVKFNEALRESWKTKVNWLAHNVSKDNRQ
- test: Inhibition of PI3Kdelta (unknown origin) by TR-FRET assay
pIC50: −log10 of the molar value.
measure-name: pIC50

[[record]]
structure = "NOCCOCCOCCOCCC(=O)N1CCN(c2cnc3ccc(-c4cnc(Cl)c(NS(=O)(=O)c5ccc(F)cc5)c4)cc3n2)CC1"
assay_result = "> 9.31"

